These entries and their values trace back to BindingDB's records for doi:10.1016/j.bmcl.2006.10.030.

biological target: Triosephosphate isomerase (Homo sapiens); assay: Inhibition of triosephosphate isomerase
Sequence (P60174 whole entry): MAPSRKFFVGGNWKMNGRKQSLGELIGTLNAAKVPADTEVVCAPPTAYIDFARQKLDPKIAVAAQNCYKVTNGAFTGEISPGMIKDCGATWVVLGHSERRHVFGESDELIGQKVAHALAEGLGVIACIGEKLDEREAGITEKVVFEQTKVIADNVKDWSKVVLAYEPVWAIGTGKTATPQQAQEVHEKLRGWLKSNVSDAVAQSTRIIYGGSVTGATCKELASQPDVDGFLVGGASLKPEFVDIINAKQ
Catalogue of Ki values
outcome-measure: Ki (µM)

{"columns": ["compound", "outcome-measure", "unit", "limit-qualifier", "quantitative-readout"],
 "data": [
  ["O=C(COP(=O)(O)O)NO", "Ki", "µM", "=", 3],
  ["NNC(=O)COP(=O)(O)O", "Ki", "µM", "=", 111],
  ["NC(CC(=O)NO)P(=O)(O)O (centres undefined)", "Ki", "µM", ">", 500],
  ["O=C(CCP(=O)(O)O)NO", "Ki", "µM", "=", 160]
]}
